molecular target: trypsin-2 (Homo sapiens, UniProt P07478); test: Ki of WX-UK1, chromogenic substrate cleavage; type: biochemical; conditions: 37° C., 0.5% BSA, pH=7.4, read-out: Ki (μM) Mean ± SD (n)
Sequence (P07478 24-247): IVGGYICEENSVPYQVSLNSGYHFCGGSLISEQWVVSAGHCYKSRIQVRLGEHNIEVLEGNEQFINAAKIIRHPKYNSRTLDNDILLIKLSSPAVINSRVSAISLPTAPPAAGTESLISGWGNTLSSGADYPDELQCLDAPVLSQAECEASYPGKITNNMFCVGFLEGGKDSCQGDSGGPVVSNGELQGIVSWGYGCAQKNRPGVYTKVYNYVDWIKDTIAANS
Test readout: Ki

Which Ki value is on record for CCOC(=O)N1CCN(C(=O)C(Cc2cccc(C(=N)N)c2)NS(=O)(=O)c2c(C(C)C)cc(C(C)C)cc2C(C)C)CC1 (stereo not shown) ?
~0.075 µM

----------
target: Human Tryptase-; assay: Ki of WX-UK1, chromogenic substrate cleavage; type: biochemical; details: Human Tryptase- (isoform character is an image); 37° C., 0.5% BSA, pH=7.4; read-out: Ki (μM) Mean ± SD (n)
Test readout: Ki (µM)
Please give a number only; it is taken to be in µM.

Which Ki value is on record for CCOC(=O)N1CCN(C(=O)C(Cc2cccc(C(=N)N)c2)NS(=O)(=O)c2c(C(C)C)cc(C(C)C)cc2C(C)C)CC1 (stereo not shown) [WX-UK1] ?
11
